EXPERIMENTAL_SYSTEM: yeast recombinant FLAG-GPBP (Homo sapiens)
Construct: FLAG; made in house
Sequence (Q9Y5P4 1-624): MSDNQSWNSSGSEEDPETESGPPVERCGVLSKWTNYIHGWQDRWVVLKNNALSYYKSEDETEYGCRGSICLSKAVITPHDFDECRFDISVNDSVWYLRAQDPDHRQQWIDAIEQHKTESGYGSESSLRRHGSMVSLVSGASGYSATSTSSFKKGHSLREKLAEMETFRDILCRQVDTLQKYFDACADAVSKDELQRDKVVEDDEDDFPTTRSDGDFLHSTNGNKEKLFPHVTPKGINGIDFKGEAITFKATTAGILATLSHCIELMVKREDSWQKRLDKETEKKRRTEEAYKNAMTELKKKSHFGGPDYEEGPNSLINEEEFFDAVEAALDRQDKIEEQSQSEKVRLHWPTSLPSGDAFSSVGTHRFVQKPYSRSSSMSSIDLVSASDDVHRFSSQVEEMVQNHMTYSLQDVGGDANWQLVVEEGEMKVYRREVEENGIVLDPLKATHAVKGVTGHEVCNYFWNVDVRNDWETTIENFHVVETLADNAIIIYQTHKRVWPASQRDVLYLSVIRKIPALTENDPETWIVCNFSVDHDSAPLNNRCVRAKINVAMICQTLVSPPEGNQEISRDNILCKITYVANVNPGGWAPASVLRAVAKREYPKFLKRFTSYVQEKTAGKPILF
TEST: FLAG-GPBP auto-phosphorylation assay
Type: biochemical
RUN_PARAMETERS: 10 μM compound, 5 min at 30° C., autoradiography bands quantified, vehicle = 100; read-out: Relative kinase activity (% referred to vehicle)
METRIC: activity at 10 µM (%)
Give just the number in %; leave the unit off.

Reported activity at 10 µM for yeast recombinant FLAG-GPBP (Homo sapiens), given COc1ccc(-c2ccc(-c3cccnc3)c(C(F)F)c2)c(CCC(=O)O)c1 [Compound 22l] ?
136

Reported activity at 10 µM for yeast recombinant FLAG-GPBP (Homo sapiens), given COc1ccc(-c2ccc(-c3cccc(C)c3)c(C(F)F)c2)c(CCC(=O)O)c1 [Compound 22d] ?
79

Reported activity at 10 µM for yeast recombinant FLAG-GPBP (Homo sapiens), given COc1ccc(-c2ccc(-c3cccc(C(F)(F)F)c3)c(C)c2)c(CCC(=O)O)c1 [Compound 22f] ?
41

Reported activity at 10 µM for yeast recombinant FLAG-GPBP (Homo sapiens), given Cc1cccc(-c2ccc(-c3ccc(O)cc3C(C)C)cc2CCC(=O)O)c1 ?
90

Reported activity at 10 µM for yeast recombinant FLAG-GPBP (Homo sapiens), given Cc1cc(-c2ccc(O)cc2CCC(=O)O)ccc1-c1cccc(C(F)(F)F)c1 [Compound 12b] ?
49

Reported activity at 10 µM for yeast recombinant FLAG-GPBP (Homo sapiens), given Cc1cccc(-c2ccc(-c3ccc(O)cc3CCC(=O)O)cc2CO)c1 ?
34

Reported activity at 10 µM for yeast recombinant FLAG-GPBP (Homo sapiens), given COc1ccc(-c2ccc(-c3cccnc3)c(CF)c2)c(CCC(=O)O)c1 [Compound 22k] ?
135

Reported activity at 10 µM for yeast recombinant FLAG-GPBP (Homo sapiens), given COc1ccc(-c2ccc(-c3cccnc3)c(C)c2)c(CCC(=O)O)c1 [Compound 22j] ?
50

Reported activity at 10 µM for yeast recombinant FLAG-GPBP (Homo sapiens), given CCCOc1ccc(-c2ccc(-c3cccc(C)c3)c(C)c2)c(CCC(=O)O)c1 [Compound 24a] ?
73

Reported activity at 10 µM for yeast recombinant FLAG-GPBP (Homo sapiens), given O=C(O)CCc1cc(O)ccc1-c1ccc(-c2cccc(C(F)(F)F)c2)c(C(F)F)c1 [Compound 20b] ?
77

Reported activity at 10 µM for yeast recombinant FLAG-GPBP (Homo sapiens), given COc1ccc(-c2ccc(-c3cccc(C)c3)c(CF)c2)c(CCC(=O)O)c1 [Compound 22c] ?
123

Reported activity at 10 µM for yeast recombinant FLAG-GPBP (Homo sapiens), given CCCOc1ccc(-c2ccc(-c3cccc(C(F)(F)F)c3)c(C)c2)c(CCC(=O)O)c1 [Compound 24c] ?
36

Reported activity at 10 µM for yeast recombinant FLAG-GPBP (Homo sapiens), given COc1ccc(-c2ccc(-c3cccc(C(F)(F)F)c3)c(C(F)F)c2)c(CCC(=O)O)c1 [Compound 22h] ?
49

Reported activity at 10 µM for yeast recombinant FLAG-GPBP (Homo sapiens), given COc1ccc(-c2ccc(-c3cccc(C(F)(F)F)c3)c(CF)c2)c(CCC(=O)O)c1 [Compound 22g] ?
103

Reported activity at 10 µM for yeast recombinant FLAG-GPBP (Homo sapiens), given Cc1cccc(-c2ccc(-c3ccc(O)cc3CCC(=O)O)cc2CF)c1 [Compound 15a] ?
79

Reported activity at 10 µM for yeast recombinant FLAG-GPBP (Homo sapiens), given O=C(O)CCc1cc(O)ccc1-c1ccc(-c2cccc(C(F)(F)F)c2)c(CO)c1 ?
131

Reported activity at 10 µM for yeast recombinant FLAG-GPBP (Homo sapiens), given COc1ccc(-c2ccc(-c3cccc(C(F)(F)F)c3)c(CO)c2)c(CCC(=O)O)c1 [Compound 22e] ?
129

Reported activity at 10 µM for yeast recombinant FLAG-GPBP (Homo sapiens), given Cc1cccc(-c2ccc(-c3ccc(O)cc3CCC(=O)O)cc2C)c1 [Compound 12a] ?
53

Reported activity at 10 µM for yeast recombinant FLAG-GPBP (Homo sapiens), given Cc1cccc(-c2ccc(-c3ccc(OCC(=O)O)cc3CCC(=O)O)cc2C)c1 [Compound 24b] ?
64

Reported activity at 10 µM for yeast recombinant FLAG-GPBP (Homo sapiens), given COc1ccc(-c2ccc(-c3ccc(OC)c(C)c3)c(C)c2)c(CCC(=O)O)c1 ?
28

Reported activity at 10 µM for yeast recombinant FLAG-GPBP (Homo sapiens), given O=C(O)CCc1cc(O)ccc1-c1ccc(-c2cccc(C(F)(F)F)c2)c(CF)c1 [Compound 15b] ?
21

Reported activity at 10 µM for yeast recombinant FLAG-GPBP (Homo sapiens), given COc1ccc(-c2ccc(-c3cccc(C)c3)c(CO)c2)c(CCC(=O)O)c1 [Compound 22a] ?
118

Reported activity at 10 µM for yeast recombinant FLAG-GPBP (Homo sapiens), given O=C(O)CCc1cc(O)ccc1-c1ccc(-c2cccnc2)c(CO)c1 ?
58

Reported activity at 10 µM for yeast recombinant FLAG-GPBP (Homo sapiens), given COc1ccc(-c2ccc(-c3cccc(C)c3)c(C)c2)c(CCC(=O)O)c1 [Compound 22b] ?
44

Reported activity at 10 µM for yeast recombinant FLAG-GPBP (Homo sapiens), given COc1ccc(-c2ccc(-c3cccnc3)c(CO)c2)c(CCC(=O)O)c1 [Compound 22i] ?
132

Reported activity at 10 µM for yeast recombinant FLAG-GPBP (Homo sapiens), given Cc1cccc(-c2ccc(-c3ccc(O)cc3CCC(=O)O)cc2C(F)F)c1 [Compound 20a] ?
61

Where do the numbers come from? From patent US10544083B2.
